System: Biomphalaria alexandrina
Assay: Molluscicidal activity against Biomphalaria alexandrina assessed as number of dead snail at 10 ppm after 48 hrs
Assay type: organism-based
Conditions: in vivo
Reported endpoint: Activity
Param answer (str): number followed by unit.

Fill in: Activity of C[C@@H]1O[C@@H](O[C@H]2[C@H](O[C@H]3CC[C@]4(C)[C@H]5CC=C6[C@@H]7CC(C)(C)CC[C@]7(C(=O)O)CC[C@@]6(C)[C@]5(C)CC[C@H]4C3(C)C)OC[C@H](O[C@@H]3O[C@H](CO)[C@@H](O)[C@H](O)[C@H]3O)[C@@H]2O)[C@H](O)[C@H](O)[C@H]1O [HEDERACOLCHISIDE A1] is ___
100%

The values you see were collected from ChEMBL document CHEMBL1158245.
